Could you please report measured solubility for the items listed next?
Experiment: Solubility in aqueous medium at pH 7.4
Type: physicochemical
Settings: aqueous medium, pH 7.4, aqueous buffer
Please append the unit to your numeric answer.

Qu. So what does the record say about solubility for C[C@]12C[C@H](c3ccc(/C=C/c4ccc(C(=O)O)cc4)cc3)C3=C4CCC(=O)C=C4CC[C@H]3[C@@H]1CC[C@@]2(O)C(F)(F)C(F)(F)F [Example 29] ?
Ans. 102 µg/mL

Qu. So what does the record say about solubility for C[C@]12C[C@H](c3ccc(/C=C/c4ccccn4)cc3)C3=C4CCC(=O)C=C4CC[C@H]3[C@@H]1CC[C@@]2(O)C(F)(F)C(F)(F)F [Example 6] ?
Ans. 9 µg/mL

Qu. So what does the record say about solubility for C[C@]12C[C@H](c3cccc(/C=C/c4ccccn4)c3)C3=C4CCC(=O)C=C4CC[C@H]3[C@@H]1CC[C@@]2(O)C(F)(F)C(F)(F)F [Example 21] ?
Ans. 7 µg/mL

Qu. So what does the record say about solubility for C[C@]12C[C@H](c3ccc(/C=C/c4ccncc4)cc3)C3=C4CCC(=O)C=C4CC[C@H]3[C@@H]1CC[C@@]2(O)C(F)(F)C(F)(F)F [Example 8] ?
Ans. 7 µg/mL

Qu. So what does the record say about solubility for C[C@]12C[C@H](c3ccc(/C=C/c4cccc(C(=O)O)c4)cc3)C3=C4CCC(=O)C=C4CC[C@H]3[C@@H]1CC[C@@]2(O)C(F)(F)C(F)(F)F [Example 28] ?
Ans. 120 µg/mL

Qu. So what does the record say about solubility for C[C@]12C[C@H](c3ccc(/C=C/C#N)cc3)C3=C4CCC(=O)C=C4CC[C@H]3[C@@H]1CC[C@@]2(O)C(F)(F)C(F)(F)F [Example 14] ?
Ans. 9 µg/mL

Origin of the recorded values: patent US9156877B2
